Cited source: patent US4426371A

assay: Osmotic pressure of aqueous contrast media solution; type: physicochemical; settings: 300 mg I/ml
reportedEndpoint: Osmotic Pressure 37° C. (atm)
Write the answer as a number in atm, unit excluded.

1. CN(CC(O)CO)C(=O)c1c(I)c(NC(=O)C(=O)Nc2c(I)c(C(=O)N(C)CC(O)CO)c(I)c(C(=O)N(C)CC(O)CO)c2I)c(I)c(C(=O)N(C)CC(O)CO)c1I (stereo not shown) [B] :: 4.3

Query: Osmotic Pressure 37° C.; subject: C[C@H](O)C(=O)Nc1c(I)c(C(=O)NC(CO)CO)c(I)c(C(=O)NC(CO)CO)c1I [Iopamidol]
15.7

And the next one, CC(=O)Nc1c(I)c(C(=O)N[C@H]2C(O)O[C@H](CO)[C@@H](O)[C@@H]2O)c(I)c(N(C)C(C)=O)c1I (stereo partly shown) [Metrizamide] ?
12.3

And the next one, O=C(NC(CO)CO)c1c(I)c(C(=O)NC(CO)CO)c(I)c(N(CCO)C(=O)CC(=O)N(CCO)c2c(I)c(C(=O)NC(CO)CO)c(I)c(C(=O)NC(CO)CO)c2I)c1I [A] ?
7.2
